Target: β-catenin/Tcf protein-protein interaction (Homo sapiens, UniProt P35222)
Construct: Wild-type β-catenin (residues 138-781) were cloned into a pET-28b vector; 6×histidine (C); made in house; host or cells: E. coli BL21 DE3
Test: FP competitive inhibition assay
Format: binding
Details: Assay 2, mean ± SD (n = 3), read-out: Ki ± SD, Assay 2
pKi: −log10 of the molar value.
observation_type: pKi

substance_smiles: O=C(O)c1ccc2c(c1)c(CCc1ccc(F)cc1)c(CCc1nc3ccccc3s1)n2CCc1nn[nH]n1
target_system: β-catenin/Tcf protein-protein interaction (Homo sapiens, UniProt P35222)
pKi: 5.57
--
substance_smiles: COc1ccc2nc(C#Cc3c(CCc4ccc5c(c4)OCCO5)c4cc(C(=O)O)ccc4n3CCc3nn[nH]n3)sc2c1
target_system: β-catenin/Tcf protein-protein interaction (Homo sapiens, UniProt P35222)
pKi: 6.17
--
substance_smiles: COc1ccc2sc(C#Cc3c(CCc4ccc(Cl)cc4)c4cc(C(=O)O)ccc4n3CCc3nn[nH]n3)nc2c1
target_system: β-catenin/Tcf protein-protein interaction (Homo sapiens, UniProt P35222)
pKi: 6.54
--
substance_smiles: Cc1ccc(CCc2c(-c3cc[nH]c3)n(CCc3nn[nH]n3)c3ccc(C(=O)O)cc23)cc1
target_system: β-catenin/Tcf protein-protein interaction (Homo sapiens, UniProt P35222)
pKi: 5.49
--
substance_smiles: COc1ccc2sc(CCc3c(CCc4ccc(Cl)cc4)c4cc(C(=O)NCc5ccc(Cl)cc5)ccc4n3CCc3nn[nH]n3)nc2c1
target_system: β-catenin/Tcf protein-protein interaction (Homo sapiens, UniProt P35222)
pKi: 5.49

1. O=C(O)c1ccc2c(c1)c(CCc1cccc3ccccc13)cn2CCc1nn[nH]n1
2. Cc1ccc(CCc2c(-c3ccsc3)n(CCc3nn[nH]n3)c3ccc(C(=O)O)cc23)cc1
Query :: Record comparison, field pKi: mark the lower of 1 and 2 . Write down the label attached to your selection.
Result :: 1

====

Target: β-catenin/Tcf protein-protein interaction (Homo sapiens)
Construct: Wild-type β-catenin (residues 138-781) were cloned into a pET-28b vector; 6×histidine (C); made in house; host or cells: E. coli BL21 DE3
Test: FP competitive inhibition assay
Type: binding
Conditions: Assay 1, mean ± SD (n = 3), read-out: Ki ± SD, Assay 1
observation_type: Ki (µM)

Some compounds with known Ki results, for comparison:
substance_smiles: CONC(=O)c1ccc2c(c1)c(CCc1ccc(C)cc1)c(-c1ccsc1)n2CCc1nn[nH]n1
unit_spec: µM
Ki: 31

substance_smiles: COc1ccc2sc(CCc3c(CCc4ccc(Cl)cc4)c4cc(C(=O)NCC5CCOCC5)ccc4n3CCc3nn[nH]n3)nc2c1
unit_spec: µM
Ki: 5.4

a. O=C(O)c1ccc2c(c1)c(CCc1ccc3ccccc3c1)cn2CCc1nn[nH]n1
b. O=C(NCc1ccc(F)cc1)c1ccc2c(c1)c(CCc1ccc(F)cc1)c(CCc1nc3ccccc3s1)n2CCc1nn[nH]n1
c. Cc1ccc(CCc2cn(CCc3nn[nH]n3)c3ccc(C(=O)O)cc23)cc1
Query :: Ordering criterion: Ki; begin with the maximum. In your reply, arrange the labels in the requested order.
Result :: c, a, b
(c: 27 µM, a: 6.5 µM, b: 1.6 µM)

====

Target: β-catenin/Tcf protein-protein interaction (Homo sapiens)
Construct: Wild-type β-catenin (residues 138-781) were cloned into a pET-28b vector; 6×histidine (C); made in house; host or cells: E. coli BL21 DE3
Sequence (P35222 138-781): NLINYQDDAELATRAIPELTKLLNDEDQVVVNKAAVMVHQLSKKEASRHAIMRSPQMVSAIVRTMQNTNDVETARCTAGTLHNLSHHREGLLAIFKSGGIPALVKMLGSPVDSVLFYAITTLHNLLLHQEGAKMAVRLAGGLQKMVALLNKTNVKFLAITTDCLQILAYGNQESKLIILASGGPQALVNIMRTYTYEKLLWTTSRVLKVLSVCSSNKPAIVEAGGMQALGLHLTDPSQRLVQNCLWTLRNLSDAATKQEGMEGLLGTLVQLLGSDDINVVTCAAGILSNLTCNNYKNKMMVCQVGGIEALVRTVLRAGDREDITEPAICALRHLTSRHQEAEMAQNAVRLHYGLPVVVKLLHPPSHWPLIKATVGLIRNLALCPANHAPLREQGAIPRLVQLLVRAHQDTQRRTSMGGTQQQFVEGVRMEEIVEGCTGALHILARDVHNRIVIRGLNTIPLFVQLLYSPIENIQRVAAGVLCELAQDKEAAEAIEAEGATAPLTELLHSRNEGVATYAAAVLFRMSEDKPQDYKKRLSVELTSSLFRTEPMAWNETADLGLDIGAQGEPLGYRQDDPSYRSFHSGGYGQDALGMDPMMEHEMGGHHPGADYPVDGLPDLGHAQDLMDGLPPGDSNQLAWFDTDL
Test: FP competitive inhibition assay
Type: binding
Settings: Assay 1, mean ± SD (n = 3), read-out: Ki ± SD, Assay 1
pKi: −log10 of the molar value.
observation_type: pKi

substance_smiles: COc1ccc2sc(CCc3c(CCc4ccc(Cl)cc4)c4cc(C(=O)NCc5ccsc5)ccc4n3CCc3nn[nH]n3)nc2c1
pKi: 6.08

substance_smiles: O=C(O)c1ccc2c(c1)c(CCc1ccc3ccccc3c1)c(CCc1nc3ccccc3s1)n2CCc1nn[nH]n1
pKi: 6.21

substance_smiles: O=C(O)c1ccc2c(c1)c(CCc1ccc3c(c1)OCCO3)c(-c1ccsc1)n2CCc1nn[nH]n1
pKi: 5.47

substance_smiles: O=C(O)c1ccc2c(c1)c(CCc1cccc3ccccc13)cn2CCc1nn[nH]n1
pKi: 5.34

substance_smiles: COc1ccc2sc(CCc3c(CCc4ccc(Cl)cc4)c4cc(C(=O)NCc5cnccn5)ccc4n3CCc3nn[nH]n3)nc2c1
pKi: 5.70

a. COc1ccc2sc(CCc3c(CCc4ccc(Cl)cc4)c4cc(C(=O)NCc5ccncn5)ccc4n3CCc3nn[nH]n3)nc2c1
b. O=C(O)c1ccc2c(c1)c(CCc1ccc(Cl)c(Cl)c1)cn2CCc1nn[nH]n1
c. COc1ccc2nc(C#Cc3c(CCc4ccc(Cl)cc4)c4cc(C(=O)O)ccc4n3CCc3nn[nH]n3)sc2c1
Query :: Please list these in order of increasing pKi. Thank you! In your reply, arrange the labels in the requested order.
Result :: b, a, c
(b: 5.18, a: 5.44, c: 6.22)

a. COc1ccc2sc(CCc3c(CCc4ccc(Cl)cc4)c4cc(C(=O)NCc5ccccn5)ccc4n3CCc3nn[nH]n3)nc2c1
b. Cc1ccc(CCc2c(-c3ccsc3)n(CCc3nn[nH]n3)c3ccc(C(N)=O)cc23)cc1
c. O=C(O)c1ccc2c(c1)c(CCc1ccc(Cl)cc1)cn2CCc1nn[nH]n1
Query :: Please list these in order of increasing pKi. Thank you! In your reply, arrange the labels in the requested order.
Result :: c, b, a
(c: 4.59, b: 4.80, a: 5.54)

P. COCCOc1ccc2sc(CCc3c(CCc4ccc(Cl)cc4)c4cc(C(=O)NCc5ccc(Cl)cc5)ccc4n3CCc3nn[nH]n3)nc2c1
Q. Cc1ccc(CCc2c(CCc3nc4ccccc4s3)n(CCc3nn[nH]n3)c3ccc(C(=O)O)cc23)cc1
Query :: Record comparison, field pKi: mark the lower of P and Q . Write down the label attached to your selection.
Result :: Q

A. COc1ccc2sc(CCc3c(CCc4ccc(Cl)cc4)c4cc(C(=O)Nc5ccc(Cl)cc5)ccc4n3CCc3nn[nH]n3)nc2c1
B. Cc1ccc(CCc2c(-c3ccsc3)n(CCc3nn[nH]n3)c3ccc(C(=O)NO)cc23)cc1
Query :: Record comparison, field pKi: mark the lower of A and B . Write down the label attached to your selection.
Result :: A

====

Molecular target: β-catenin/Tcf protein-protein interaction (Homo sapiens, UniProt P35222)
Construct: Wild-type β-catenin (residues 138-781) were cloned into a pET-28b vector; 6×histidine (C); made in house; host or cells: E. coli BL21 DE3
Assay: FP competitive inhibition assay
Assay type: binding
Settings: Assay 1, mean ± SD (n = 3), read-out: Ki ± SD, Assay 1
pKi: −log10 of the molar value.
observation_type: pKi

substance_smiles: COc1ccc2sc(CCc3c(CCc4ccc(Cl)cc4)c4cc(C(=O)NCC5CCNCC5)ccc4n3CCc3nn[nH]n3)nc2c1
target_system: β-catenin/Tcf protein-protein interaction (Homo sapiens, UniProt P35222)
observation_type: pKi
recorded_measurement: 5.23

P. COc1ccc2sc(CCc3c(CCc4ccc(Cl)cc4)c4cc(C(=O)NCCc5ccc(Cl)cc5)ccc4n3CCc3nn[nH]n3)nc2c1
Q. O=C(O)CCn1c(CCc2nc3ccccc3[nH]2)c(CCc2ccc(Cl)cc2)c2cc(C(=O)O)ccc21
Query :: Record comparison, field pKi: mark the lower of P and Q . Write down the label attached to your selection.
Result :: Q
(Q: 4.44, P: 6.12)
